target: Human Serum Albumin (HSA) (Homo sapiens, UniProt P02768); construct: purchased ChiralPAK HSA HPLC column, 50×4 mm; assay: HSA-HPLC plasma protein binding (immobilized human serum albumin-HPLC); type: in vitro ADME; details: HSA-HPLC method, room temperature, estimated from gradient retention times, read-out: % Bound to HSA at r.t.
Sequence (P02768 25-609): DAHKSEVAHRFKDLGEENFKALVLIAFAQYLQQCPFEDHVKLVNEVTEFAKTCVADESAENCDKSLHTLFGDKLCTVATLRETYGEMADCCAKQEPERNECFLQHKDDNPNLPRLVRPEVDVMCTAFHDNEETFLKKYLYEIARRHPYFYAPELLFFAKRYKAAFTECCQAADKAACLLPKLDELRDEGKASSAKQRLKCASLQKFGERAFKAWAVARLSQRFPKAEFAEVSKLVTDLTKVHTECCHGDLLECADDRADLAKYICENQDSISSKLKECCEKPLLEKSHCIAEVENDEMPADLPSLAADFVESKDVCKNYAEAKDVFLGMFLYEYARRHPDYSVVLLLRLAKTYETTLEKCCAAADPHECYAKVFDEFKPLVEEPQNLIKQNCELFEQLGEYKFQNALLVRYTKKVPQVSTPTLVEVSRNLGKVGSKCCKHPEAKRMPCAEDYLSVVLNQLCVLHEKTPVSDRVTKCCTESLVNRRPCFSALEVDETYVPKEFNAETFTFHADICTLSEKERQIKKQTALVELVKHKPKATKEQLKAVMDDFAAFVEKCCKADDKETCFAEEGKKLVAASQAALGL
Bridge positions count the residues as written; N and C are the ends. Square brackets hold non-standard residues; d marks the D form. Peptide text beside a SMILES is read from it. Trp(6-Cl) = N[C@@H](Cc1c[nH]c2cc(Cl)ccc12)C(=O)O; Phe(3-Cl) = N[C@@H](Cc1cccc(Cl)c1)C(=O)O; NMeF = CN[C@@H](Cc1ccccc1)C(=O)O; Ahp(2) = CCCCC[C@H](N)C(=O)O; Sar = CNCC(=O)O
property-name: fraction unbound

Would you kindly share the measured fraction unbound for CCCCC[C@@H]1NC(=O)CN(C)C(=O)[C@H](C(C)C)NC(=O)[C@H](Cc2c[nH]c3cc(Cl)ccc23)NC(=O)CNC(=O)[C@H]([C@@H](C)O)NC(=O)[C@H](Cc2ccccc2)N(C)C(=O)CNC(=O)[C@H](CCCNC(=N)N)NC(=O)[C@H](Cc2ccc(O)cc2)NC(=O)[C@H](Cc2cccc(Cl)c2)NC(=O)[C@H](C(C)C)NC(=O)[C@H](C)NC(=O)CSC[C@@H](C(N)=O)NC1=O [Compound P-31] ({CH2CO}-AV[Phe(3-Cl)]YRG[NMeF]TG[Trp(6-Cl)]V[Sar][Ahp(2)]C-NH2; thioether N-14) ? 0.1 to 0.3
